Biological target: pooled human IgG
Reported Enzyme Activity Endpoint Assay: IgG values for a set of proteins
observation_type: Enzyme Activity Endpoint Assay: IgG (ng/µL)

| protein | meas_value |
| --- | --- |
| PRT-285 (protein) MVTSVWTKGVTPPAKFTQGEDVFHAPYDANQGWYDITKTFNGKDDLLCGAATAGNMLHWWFDQNKEKIEAYLKKHPDKQKIMFGDQELLDVRKVINTKGDQTNSELFNYFRDKAFPGLSARRIGVMPDLVLDMFINGYYLNVYKTQTTDVNRTYQEKDRRGGIFDAVFTRGDQSKLLTSRHDFKEKNLKEISDLIKKELTEGKALGLSHTYANVRISHVINLWGADFDSNGNLKAIYVTDSDSNASIGMKKYGVGVNSAGKVAISAKEIKEDNIGAQVLGLFTLSTGQDSWNQTN | 1320 |
| PRT-31 (protein) MANQEIRYSEVTPYHVTSVWTKGVTPPANFTQGEDVFHAPYVANQGWYDITKTFNGKDDLLCGAATAGNMLHWWFDQNKDQIERYLEEHPEKQKINFNGEQMFDVKEAIDTKNHQLDSKLFEYFKEKAFPYLSTKHLGVFPDHVIDMFINGYRLSLTNHGPTPVKEGSKDPRGGIFDAVFTRGDQSKLLTSRHDFKEKNLKEISDLIKKELTEGKALGLSHTYANVRINHVINLWGADFDSNGNLKAIYVTDSDSNASIGMKKYFVGVNSAGKVAISAKEIKEDNIGAQVLGLFTLSTGQDSWNQTN | 13 |

Data provenance: patent US20250027068
